I'd be grateful if you could share measured Ki for these entries.
*1 amine or outer side, *2 acyl side, *3 side chain or, on linkers, in order; H or OH if unused. Where a SMILES comes first, the peptide text is derived from it. Bridges are numbered along the chain shown (N, C = ends). [ ]: non-standard residue; d: D form. ξ: configuration not given here. X1 = O=C(C(N[*:1])S[*:3])[*:2]; Ahp = NCCCCCCC(=O)O; ξC = NC(CS)C(=O)O; Mpa = O=C(O)CCS
Value expressed in nM; do not type the unit.

QUERY: # get_value(readout= Ki, system= Somatostatin receptor type 3 (Mus musculus)) for C[C@@H](O)[C@@H]1NC(=O)[C@H](CCCCN)NC(=O)[C@@H](Cc2c[nH]c3ccccc23)NC(=O)[C@H](Cc2ccccc2)NC(=O)[C@@H]2CSSCC(NC1=O)C(=O)NCCCCCCC(=O)N2 (cyclo([Ahp]CF[dW]KT[ξC]); disulfide 2-7)
RESULT: 0.07

QUERY: Please state recorded Ki (tested on Somatostatin receptor type 3 (Mus musculus)) of CC(C)[C@@H]1NC(=O)[C@H](CCCCN)NC(=O)[C@@H](Cc2c[nH]c3ccccc23)NC(=O)[C@H](Cc2ccc(O)cc2)NC(=O)CCSSC(C(=O)N[C@@H](Cc2ccccc2)C(N)=O)NC1=O (stereo partly drawn) [CAS_117580-24-2] ([Mpa]Y[dW]KV[X1]F-NH2; disulfide 1-6)
Sequence (P30935 whole entry): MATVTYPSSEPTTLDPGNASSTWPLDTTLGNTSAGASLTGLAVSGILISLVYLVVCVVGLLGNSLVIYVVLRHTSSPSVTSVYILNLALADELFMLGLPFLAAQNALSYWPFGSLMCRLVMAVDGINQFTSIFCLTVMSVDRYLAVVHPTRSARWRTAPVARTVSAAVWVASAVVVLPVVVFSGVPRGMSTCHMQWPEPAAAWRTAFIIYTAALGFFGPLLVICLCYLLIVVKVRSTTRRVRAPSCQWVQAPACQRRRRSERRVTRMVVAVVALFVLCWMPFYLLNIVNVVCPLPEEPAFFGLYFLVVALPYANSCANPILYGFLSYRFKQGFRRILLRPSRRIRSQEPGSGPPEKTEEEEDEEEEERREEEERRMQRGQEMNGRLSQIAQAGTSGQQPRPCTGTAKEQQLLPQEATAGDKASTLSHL
RESULT: 245

QUERY: Param readout = Ki; param system = Somatostatin receptor type 3 (Mus musculus); param query = CC(C)[C@H](NC(=O)[C@H](CCCCN)NC(=O)[C@@H](Cc1c[nH]c2ccccc12)NC(=O)[C@H](Cc1ccc(O)cc1)NC(=O)[C@H](Cc1ccccc1)NC(=O)[C@H](N)Cc1ccccc1)C(=O)N[C@@H](Cc1ccccc1)C(=O)N[C@H](C(N)=O)[C@@H](C)O [BIM-23058] (H-[dF]FY[dW]KVFT-NH2) ; response: value
RESULT: 0.03
